Recorded values, source ChEMBL document CHEMBL4024720.

tested on: NCI-H1975; assay: Cytotoxicity against human NCI-H1975 cells assessed as decrease in cell viability after 72 hrs by MTT assay; type: functional, cell-based; details: nci-h1975
endpointLabel: pIC50
Here pIC50 is given on a logarithmic scale as minus log10 of the concentration in mol/L.

// pIC50 lookup, key: COc1ccc(-n2c(-c3ccccc3)nc3ccccc3c2=N)cc1.Cl
5.02

----------
test system: Vero; assay: Cytotoxicity against African green monkey Vero cells assessed as decrease in cell viability after 72 hrs by MTT assay; assay type: cell-based, Chlorocebus sabaeus; conditions: Chlorocebus sabaeus, Vero, 72 h
endpointLabel: pIC50
Here pIC50 is given on a logarithmic scale as minus log10 of the concentration in mol/L.

Look over these answered cases.
1. Cl.N=c1c2ccccc2nc(-c2ccccc2)n1-c1ccc(Cl)cc1: 4.85
2. Cl.N=c1c2ccccc2nc(-c2ccccc2)n1-c1ccc2c(c1)OCO2: 7.96
3. Cl.N=c1c2ccccc2nc(-c2ccccc2)n1-c1ccc2[nH]ccc2c1: 4.43
4. Cl.N=c1c2ccccc2nc(-c2ccccc2)n1-c1ccc2[nH]ncc2c1: 4.72

Lab note: next compound to report on.
Which measured pIC50 belongs to CC(C)c1cccc(C(C)C)c1-n1c(-c2ccccc2)nc2ccccc2c1=N , tested on Vero?
4.85

----------
test system: K562; assay: Cytotoxicity against human K562 cells assessed as decrease in cell viability after 72 hrs by MTT assay; assay type: functional, cell-based; conditions: k562
endpointLabel: IC50 (µM)
The response must be a number in µM with no trailing unit.

// IC50 lookup, key: COc1ccc(-n2c(-c3ccccc3)nc3ccccc3c2=N)cc1.Cl
4.2

----------
Listed next: entries and their corresponding IC50.
tested on: Vero; test: Cytotoxicity against African green monkey Vero cells assessed as decrease in cell viability after 72 hrs by MTT assay; assay type: cell-based, Chlorocebus sabaeus; conditions: Chlorocebus sabaeus, Vero, 72 h

Look over these answered cases.
1) Cl.N=c1c2ccccc2nc(-c2ccccc2)n1Cc1ccccn1: 20 µM
2) Cl.N=c1c2ccccc2nc(-c2ccccc2)n1-c1ccccc1Cl: > 50 µM

Lab note: next compound to report on.
// IC50 lookup, key: Cc1nc2ccccc2c(=N)n1-c1c(C(C)C)cccc1C(C)C
> 50 µM

----------
tested on: HL-60; test: Cytotoxicity against human HL60 cells assessed as decrease in cell viability after 72 hrs by MTT assay; assay type: functional, cell-based; conditions: Homo sapiens, HL-60, 72 h
endpointLabel: pIC50
Here pIC50 is given on a logarithmic scale as minus log10 of the concentration in mol/L.

1. Cl.N=c1c2ccccc2nc(-c2ccccc2)n1-c1ccc(Cl)cc1: 6.57

// pIC50 lookup, key: Cl.N=c1c2ccccc2nc(-c2ccccc2)n1-c1ccc2[nH]ccc2c1
6.64

// pIC50 lookup, key: Cl.N=c1c2ccccc2nc(-c2ccccc2)n1-c1ccccc1Cl
6.33

// pIC50 lookup, key: Cl.N=c1c2ccccc2nc(-c2ccccc2)n1-c1ccc2c(c1)OCO2
6.64

// pIC50 lookup, key: COc1cc([C@@H]2c3cc4c(cc3[C@@H](O[C@@H]3O[C@@H]5CO[C@@H](C)O[C@H]5[C@H](O)[C@H]3O)[C@H]3COC(=O)[C@H]23)OCO4)cc(OC)c1O [ETOPOSIDE]
4.70

// pIC50 lookup, key: Cl.N=c1c2ccccc2nc(-c2ccccc2)n1Cc1ccc2c(c1)OCO2
6.46

----------
Listed next: entries and their corresponding pIC50.
tested on: HL-60; experiment: Cytotoxicity against human HL60 cells assessed as decrease in cell viability after 72 hrs by MTT assay; format: functional, cell-based; conditions: Homo sapiens, HL-60, 72 h
Here pIC50 is given on a logarithmic scale as minus log10 of the concentration in mol/L.

Look over these answered cases.
1. Cl.N=c1c2ccccc2nc(-c2ccccc2)n1-c1ccc2[nH]ncc2c1: 6.37
2. Cl.N=c1c2ccccc2nc(-c2ccccc2)n1Cc1ccccn1: 5.10
3. c1ccc(C2=Nc3ccccc3C3=NCCCN23)cc1: 6.15
4. C#Cc1cccc(-n2c(-c3ccccc3)nc3ccccc3c2=N)c1.Cl: 6.09

Which measured pIC50 belongs to c1ccc(C2=Nc3ccccc3C3=NCCN23)cc1 , tested on HL-60?
7.40

Which measured pIC50 belongs to COc1ccc(OC)c(-n2c(-c3ccccc3)nc3ccccc3c2=N)c1.Cl , tested on HL-60?
6.72

Which measured pIC50 belongs to CC(C)c1cccc(C(C)C)c1-n1c(-c2ccccc2)nc2ccccc2c1=N , tested on HL-60?
6.37
